Provide the recorded GI50 for the entries that follow.
# System: HCT-116
# experiment: NCI tumour cell line growth inhibition, 48 h
Calls of active or inactive are those of the source. Rule as the data show it: active = GI50 up to about 1.1 µM and inactive = higher.

Answered examples (2):
Query: Query for HCT-116: what GI50 does the record show for NC(CSC(c1ccccc1)(c1ccccc1)c1ccccc1)C(=O)O (stereo unspecified) ?
Response: 0.615 µM (active)

Query: Now the same for COc1cc2c3cc1Oc1c(OC)c(OC)cc4c1C(Cc1ccc(O)c(c1)Oc1ccc(cc1)CC3N(C)CC2)N(C)CC4 (stereo unspecified)
Response: 45.3 µM (inactive)

For every listed record, write down its GI50.
1. O=C(Nc1nnc(S)[nH]1)C(=O)C1C(=O)Nc2ccccc2[S+]1[O-] (stereo unspecified)
2. CC1(O)CC23CC(O)C4(O)C(CC(O)C4(C)C)C(C)(O)C2CCC1C3O (stereo unspecified)
3. O=S(=O)(c1ccccc1)C1CN(Cc2ccccc2)CCN(Cc2ccccc2)C1
4. COc1ccc(C2=NOC(N)(c3ccc(OC)cc3)C2)cc1 (stereo unspecified)
5. COc1ccc(NC2CC(C)N(C(=O)c3ccccc3)O2)cc1 (stereo unspecified)
6. O=C1C=CC=C/C1=C1\N=C(c2ccccc2OCC(=O)c2ccc(Br)cc2)SS1
7. CN(C)/C=N/CCN1CCOCC1
8. C=[N+](CNC(=O)CNC(=O)C(Cc1ccccc1)NC(=O)OC(C)(C)C)C(=O)CNC(=O)C(Cc1ccccc1)NC(=O)OC(C)(C)C (stereo unspecified)

Response:
["> 100 µM (inactive)", "> 100 µM (inactive)", "18.1 µM (inactive)", "> 100 µM (inactive)", "> 10 µM (inactive)", "78.9 µM (inactive)", "> 100 µM (inactive)", "> 100 µM (inactive)"]

Query: Query for HCT-116: what GI50 does the record show for `Cc1cc(C)n(-c2nsc3ccccc23)n1` ?
Response: > 100 µM (inactive)
